The origin of these recorded values is paper PMC13360575.

- test.target: chicken IgY (chicken)
- assay: BLI; Octet, SAX (streptavidin) biosensors; recombinant Fabs against IgY; KD from a kinetic 1:1 model, global fit over multiple concentrations (partial fits averaged for 3 low-affinity Fabs)
quantity.measured: kon (M⁻¹ s⁻¹)
Numbers only, in M⁻¹ s⁻¹.

clone 2.1 Fab CB_05 (clonal burst) (Fab, V domains shown) VH: EVQLQESGPSLVKPSQTLSLTCSVTGDSITSGYWNWIRKFPGNKLEYMGYISYSGSTYYNPSLKSRISITRDTSKNQYYLQLNSVTTEDTATYYCGRDFDVWGAGTTVTVSS VL: DIVMTQSQKFMSTSVGDRVSVTCKASQNVGTNVAWYQQKPGQSPKALIYSASYRYSGVPDRFTGSGSGTDFTLTISNVQSEDLAEYFCQQYNSYPLTFGSGTKLEIK	221000
clone 2.1 Fab TA_10 (Fab, V domains shown) VH: EVQLQESGPSLVKPSQTLSLTCSVTGDSITSGYWNWIRRFPGNKLEYMGYISYSGSTYYNPSLKSRISITRDTSKNQYYLQLNSVTTEDTATYYCARDFDVWGAGTTVTVSS VL: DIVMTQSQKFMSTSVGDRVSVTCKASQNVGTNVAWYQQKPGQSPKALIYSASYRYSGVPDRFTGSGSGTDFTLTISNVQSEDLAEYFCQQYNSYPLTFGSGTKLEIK	152000

// each binder listed below needs its kon
1. clone 2.1 Fab L_10 (affinity ladder) (Fab, V domains shown) VH: EVQLQESGPGLVKPSQTLSLTCSVTGDSITSGYWNWIRKFPGNKLEYMGYISYSGSTYYNPSLKSRVSITRDTSKNQHYLQLNSVTTEDTATYYCGRDFDVWGAGTTVTVSS VL: DIVMTQSQKFMSTSVGDRVSVTCKASQNVGTNVAWYQQKPGQSPKALIYSASYRYSGVPDRFTGSGSGTDFTLTISNVQSEDLAEYFCQQYKSYPLTFGSGTKLEIK
2. clone 2.1 Fab, unmutated (Fab, V domains shown) VH: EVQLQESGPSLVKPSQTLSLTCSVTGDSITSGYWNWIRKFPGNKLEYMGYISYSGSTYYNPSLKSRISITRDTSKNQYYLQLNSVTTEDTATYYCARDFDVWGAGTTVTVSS VL: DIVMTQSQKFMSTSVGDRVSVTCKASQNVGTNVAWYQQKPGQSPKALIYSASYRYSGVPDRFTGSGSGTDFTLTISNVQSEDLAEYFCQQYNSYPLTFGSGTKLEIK
3. clone 2.1 Fab TA_12 (Fab, V domains shown) VH: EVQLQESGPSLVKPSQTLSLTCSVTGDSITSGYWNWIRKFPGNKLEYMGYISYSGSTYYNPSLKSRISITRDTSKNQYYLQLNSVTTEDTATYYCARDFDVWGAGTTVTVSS VL: DIVMTQSQKFMSTSVGDRVSVTCKASQNVGTNVAWFQQKPGQSPKALIYSASYRYSGVPDRFTGSGSGTDFTLTISNVQSEDLAEYFCQQYNSYPLTFGSGTKLEIK

Resp:
1: 381000; 2: 86700; 3: 180000

Req: Name the reported kon value associated with the binder clone 2.1 Fab TA_24 (Fab, V domains shown) VH: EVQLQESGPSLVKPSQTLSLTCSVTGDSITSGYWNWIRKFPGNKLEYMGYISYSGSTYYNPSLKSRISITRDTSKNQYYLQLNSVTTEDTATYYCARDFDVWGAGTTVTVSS VL: DIVMTQSQKFMSTSVGDRVSVTCKASQNVGTNVAWYQQKPGQSPKALIYSASYRYSGVPDRFTGSGSGTDFTLTISNVQSEDLAEYFCQQYYSYPLTFGSGTKLEIK
Resp: 118000
